B1: ADAMTSL2 (parent)
chain: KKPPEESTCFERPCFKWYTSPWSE

Variants of: B1
Assay: protein stability index of a GFP-peptide fusion (GPS, HEK-293T) (PSI 1-6); higher = more stable;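 note: lentivirally expressed fusions sorted by FACS into six bins by GFP to DsRed ratio, PSI derived from sequencing read proportions per bin multiplied by bin number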
Conditions: c terminus: a fixed tail appended
Readout Name: protein stability index

Examples with answers:
1) E6A :: 1.91
2) P3N :: 2.94

Quick one: give me protein stability index for each item below, same order please.
1. S20R
2. E6L
3. S20Q
4. R12G
5. K16M

Key:
2.86
2.07
2.35
2.42
2.43
